Test: Single dose PK in healthy subjects (Cohorts 1, 2, S1 and S2), plasma
Assay type: in vivo, human
Conditions: human, plasma, intravenous, 14 mg; 1.5 hr; read-out: Plasma concentration, Maximum
parameter: concentration at 1.5 h (ng/mL)
A number alone suffices; assume ng/mL.

Prompt: Which concentration at 1.5 h reading was recorded for the molecule COC(=O)N1CCC[C@H](NS(C)(=O)=O)[C@@H]1CO[C@H]1CC[C@@H](c2ccccc2)CC1 [Compound A] ?
Completion: 36.1

----------
Assay: Single dose PK in healthy subjects (Cohorts 1, 2, S1 and S2), plasma
Format: in vivo, human
Conditions: human, plasma, iv, 56 mg, 56 mg single IV infusion, healthy subjects; read-out: CL Median (converted)
parameter: clearance (mL/min)
A number alone suffices; assume mL/min.

Prompt: Which clearance reading was recorded for the compound `COC(=O)N1CCC[C@H](NS(C)(=O)=O)[C@@H]1CO[C@H]1CC[C@@H](c2ccccc2)CC1` ?
Completion: 891

Hey, just so you know, these numbers are from patent US20220339143A1.
